# assay_conditions: in DMF, 290.15 K
assay_endpoint: solubility (mole fraction)
Numbers only.

Challenge: # get_value(readout='solubility (mole fraction)', item= CC(C)(OOC(C)(C)c1ccccc1)c1ccccc1 )
Response given: 0.365

====

# assay_conditions: in sec-butanol, 298.15 K
assay_endpoint: solubility (mole fraction)
Numbers only.

Challenge: # get_value(readout='solubility (mole fraction)', item= CC(C)(OOC(C)(C)c1ccccc1)c1ccccc1 )
Response given: 0.107

====

# assay_conditions: in n-butanol, 274.15 K
assay_endpoint: solubility (mole fraction)
One number for each entry.

Challenge: # get_value(readout='solubility (mole fraction)', item= CC(C)(OOC(C)(C)c1ccccc1)c1ccccc1 )
Response given: 0.0241

====

# assay_conditions: in ethanol, 290.15 K
assay_endpoint: solubility (mole fraction)
One number for each entry.

Challenge: # get_value(readout='solubility (mole fraction)', item= CC(C)(OOC(C)(C)c1ccccc1)c1ccccc1 )
Response given: 0.0418

====

# assay_conditions: in DMF, 294.15 K
assay_endpoint: solubility (mole fraction)
Answers are plain numbers.

Challenge: # get_value(readout='solubility (mole fraction)', item= CC(C)(OOC(C)(C)c1ccccc1)c1ccccc1 )
Response given: 0.44

====

# assay_conditions: in ethanol, 278.15 K
assay_endpoint: solubility (mole fraction)
Numbers only.

Challenge: # get_value(readout='solubility (mole fraction)', item= CC(C)(OOC(C)(C)c1ccccc1)c1ccccc1 )
Response given: 0.0188

====

# assay_conditions: in isopropanol, 282.15 K
assay_endpoint: solubility (mole fraction)
Numbers only.

Challenge: # get_value(readout='solubility (mole fraction)', item= CC(C)(OOC(C)(C)c1ccccc1)c1ccccc1 )
Response given: 0.0219

====

# assay_conditions: in isopropanol, 298.15 K
assay_endpoint: solubility (mole fraction)
Give bare numbers.

Challenge: # get_value(readout='solubility (mole fraction)', item= CC(C)(OOC(C)(C)c1ccccc1)c1ccccc1 )
Response given: 0.0859

====

# assay_conditions: in DMF, 282.15 K
assay_endpoint: solubility (mole fraction)
Give bare numbers.

Challenge: # get_value(readout='solubility (mole fraction)', item= CC(C)(OOC(C)(C)c1ccccc1)c1ccccc1 )
Response given: 0.246

====

# assay_conditions: in methanol, 298.15 K
assay_endpoint: solubility (mole fraction)

Challenge: # get_value(readout='solubility (mole fraction)', item= CC(C)(OOC(C)(C)c1ccccc1)c1ccccc1 )
Response given: 0.0395

====

# assay_conditions: in n-butanol, 282.15 K
assay_endpoint: solubility (mole fraction)

Challenge: # get_value(readout='solubility (mole fraction)', item= CC(C)(OOC(C)(C)c1ccccc1)c1ccccc1 )
Response given: 0.0407

====

# assay_conditions: in isopropanol, 294.15 K
assay_endpoint: solubility (mole fraction)
Give bare numbers.

Challenge: # get_value(readout='solubility (mole fraction)', item= CC(C)(OOC(C)(C)c1ccccc1)c1ccccc1 )
Response given: 0.0567

====

# assay_conditions: in n-propanol, 278.15 K
assay_endpoint: solubility (mole fraction)
Numbers only.

Challenge: # get_value(readout='solubility (mole fraction)', item= CC(C)(OOC(C)(C)c1ccccc1)c1ccccc1 )
Response given: 0.0253

====

# assay_conditions: in n-butanol, 286.15 K
assay_endpoint: solubility (mole fraction)
One number for each entry.

Challenge: # get_value(readout='solubility (mole fraction)', item= CC(C)(OOC(C)(C)c1ccccc1)c1ccccc1 )
Response given: 0.0541

====

# assay_conditions: in n-propanol, 286.15 K
assay_endpoint: solubility (mole fraction)
One number for each entry.

Challenge: # get_value(readout='solubility (mole fraction)', item= CC(C)(OOC(C)(C)c1ccccc1)c1ccccc1 )
Response given: 0.0425

====

# assay_conditions: in methanol, 282.15 K
assay_endpoint: solubility (mole fraction)
One number for each entry.

Challenge: # get_value(readout='solubility (mole fraction)', item= CC(C)(OOC(C)(C)c1ccccc1)c1ccccc1 )
Response given: 0.0118

====

# assay_conditions: in sec-butanol, 282.15 K
assay_endpoint: solubility (mole fraction)
Give bare numbers.

Challenge: # get_value(readout='solubility (mole fraction)', item= CC(C)(OOC(C)(C)c1ccccc1)c1ccccc1 )
Response given: 0.0275

====

# assay_conditions: in isopropanol, 278.15 K
assay_endpoint: solubility (mole fraction)

Challenge: # get_value(readout='solubility (mole fraction)', item= CC(C)(OOC(C)(C)c1ccccc1)c1ccccc1 )
Response given: 0.0168

====

# assay_conditions: in methanol, 290.15 K
assay_endpoint: solubility (mole fraction)

Challenge: # get_value(readout='solubility (mole fraction)', item= CC(C)(OOC(C)(C)c1ccccc1)c1ccccc1 )
Response given: 0.02

====

# assay_conditions: in sec-butanol, 278.15 K
assay_endpoint: solubility (mole fraction)
One number for each entry.

Challenge: # get_value(readout='solubility (mole fraction)', item= CC(C)(OOC(C)(C)c1ccccc1)c1ccccc1 )
Response given: 0.0208

====

# assay_conditions: in isopropanol, 274.15 K
assay_endpoint: solubility (mole fraction)
Give bare numbers.

Challenge: # get_value(readout='solubility (mole fraction)', item= CC(C)(OOC(C)(C)c1ccccc1)c1ccccc1 )
Response given: 0.0132

====

# assay_conditions: in methanol, 302.15 K
assay_endpoint: solubility (mole fraction)
One number for each entry.

Challenge: # get_value(readout='solubility (mole fraction)', item= CC(C)(OOC(C)(C)c1ccccc1)c1ccccc1 )
Response given: 0.0602

====

# assay_conditions: in n-butanol, 298.15 K
assay_endpoint: solubility (mole fraction)
One number for each entry.

Challenge: # get_value(readout='solubility (mole fraction)', item= CC(C)(OOC(C)(C)c1ccccc1)c1ccccc1 )
Response given: 0.144

====

# assay_conditions: in DMF, 298.15 K
assay_endpoint: solubility (mole fraction)
Numbers only.

Challenge: # get_value(readout='solubility (mole fraction)', item= CC(C)(OOC(C)(C)c1ccccc1)c1ccccc1 )
Response given: 0.518

====

# assay_conditions: in sec-butanol, 290.15 K
assay_endpoint: solubility (mole fraction)

Challenge: # get_value(readout='solubility (mole fraction)', item= CC(C)(OOC(C)(C)c1ccccc1)c1ccccc1 )
Response given: 0.0486

====

# assay_conditions: in ethanol, 302.15 K
assay_endpoint: solubility (mole fraction)

Challenge: # get_value(readout='solubility (mole fraction)', item= CC(C)(OOC(C)(C)c1ccccc1)c1ccccc1 )
Response given: 0.142

====

# assay_conditions: in n-propanol, 294.15 K
assay_endpoint: solubility (mole fraction)

Challenge: # get_value(readout='solubility (mole fraction)', item= CC(C)(OOC(C)(C)c1ccccc1)c1ccccc1 )
Response given: 0.0783

====

# assay_conditions: in methanol, 274.15 K
assay_endpoint: solubility (mole fraction)
Give bare numbers.

Challenge: # get_value(readout='solubility (mole fraction)', item= CC(C)(OOC(C)(C)c1ccccc1)c1ccccc1 )
Response given: 0.00668

====

# assay_conditions: in sec-butanol, 286.15 K
assay_endpoint: solubility (mole fraction)
Give bare numbers.

Challenge: # get_value(readout='solubility (mole fraction)', item= CC(C)(OOC(C)(C)c1ccccc1)c1ccccc1 )
Response given: 0.036

====

# assay_conditions: in isopropanol, 302.15 K
assay_endpoint: solubility (mole fraction)

Challenge: # get_value(readout='solubility (mole fraction)', item= CC(C)(OOC(C)(C)c1ccccc1)c1ccccc1 )
Response given: 0.143

====

# assay_conditions: in ethanol, 294.15 K
assay_endpoint: solubility (mole fraction)
One number for each entry.

Challenge: # get_value(readout='solubility (mole fraction)', item= CC(C)(OOC(C)(C)c1ccccc1)c1ccccc1 )
Response given: 0.0573

====

# assay_conditions: in sec-butanol, 294.15 K
assay_endpoint: solubility (mole fraction)
Give bare numbers.

Challenge: # get_value(readout='solubility (mole fraction)', item= CC(C)(OOC(C)(C)c1ccccc1)c1ccccc1 )
Response given: 0.0724

====

# assay_conditions: in sec-butanol, 274.15 K
assay_endpoint: solubility (mole fraction)
Numbers only.

Challenge: # get_value(readout='solubility (mole fraction)', item= CC(C)(OOC(C)(C)c1ccccc1)c1ccccc1 )
Response given: 0.0161

====

# assay_conditions: in n-propanol, 282.15 K
assay_endpoint: solubility (mole fraction)
Answers are plain numbers.

Challenge: # get_value(readout='solubility (mole fraction)', item= CC(C)(OOC(C)(C)c1ccccc1)c1ccccc1 )
Response given: 0.0317

====

# assay_conditions: in DMF, 278.15 K
assay_endpoint: solubility (mole fraction)
One number for each entry.

Challenge: # get_value(readout='solubility (mole fraction)', item= CC(C)(OOC(C)(C)c1ccccc1)c1ccccc1 )
Response given: 0.196
